Data origin: patent US20210380703A1

# assay-system: T1, biotinylated goat anti-human kappa light chain
# T1 construct: Positive control of the ELISA
# assay: ELISA, positive control; note: test concentration or dose not given here
measured-property: optical density (OD)
Provide only the numeric value, understood in OD.

I have this binder here, 367_A11 (antibody, V domains shown, VH and VL only) VH: EVQLLESGGGLVQPGGSLRLSCAASGFTFSSYGMHWVRQAPGKGLEWVSGINYNGGYTSYADSVKGRFTISRDNSKNTLYLQMNSLRAEDTAVYYCARSATWHDTHLDYWGQGTLVTVSS VL: DIQMTQSPSSLSASVGDRVTITCRASQSILSYVNWYQQKPGKAPKLVIYATTSLASGVPSRFSGSGSGTDFTLTISSLQPEDFATYYCQQSYNSPLTFGGGTKVEIK , and I need its recorded optical density.
3.61

I have this binder here, 376_A01 (antibody, V domains shown, VH and VL only) VH: EVQLLESGGGLVQPGGSLRLSCAASGFTFDSYGMNWVRQAPGKGLEWVSNINYNGGYTGYADSVKGRFTISRDNSKNTLYLQMNSLRAEDTAVYYCARSATWHDTHLDYWGQGTLVTVSS VL: DIQMTQSPSSLSASVGDRVTITCRASQSIVSYLNWYQQKPGKAPKLLIYAATSRASGVPSRFSGSGSGTDFTLTISSLQPEDFATYYCQQSYSTPLTFGGGTKVEIK , and I need its recorded optical density.
2.98

I have this binder here, 369_D06 (antibody, V domains shown, VH and VL only) VH: EVQLLESGGGLVQPGGSLRLSCAASGFTFDSYSMNWVRQAPGKGLEWVSGINYNGGYTGYADSVKGRFTISRDNSKNTLYLQMNSLRAEDTAVYYCARSATWHDTHLDYWGQGTLVTVSS VL: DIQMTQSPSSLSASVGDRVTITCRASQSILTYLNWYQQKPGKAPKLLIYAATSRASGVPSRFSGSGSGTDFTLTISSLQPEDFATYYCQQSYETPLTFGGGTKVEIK , and I need its recorded optical density.
3.11
